Molecular target: T1, human IL-2Rγ (common cytokine receptor γ-chain) (human, UniProt P31785 23-262, limits assumed)
T1 construct: Recombinant protein coated on the plate or immobilised on a CM5 chip; also called hu IL-2R; CD132
T1 sequence: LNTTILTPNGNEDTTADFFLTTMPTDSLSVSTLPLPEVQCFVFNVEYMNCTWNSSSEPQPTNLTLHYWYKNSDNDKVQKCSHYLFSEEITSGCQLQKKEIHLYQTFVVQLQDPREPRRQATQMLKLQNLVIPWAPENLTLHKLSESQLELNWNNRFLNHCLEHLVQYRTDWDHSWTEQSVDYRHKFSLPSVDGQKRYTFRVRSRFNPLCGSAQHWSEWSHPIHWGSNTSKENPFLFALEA
Test: SPR off-rate ranking, periplasmic extract on immobilised protein
measure: koff (s⁻¹)

INSERT INTO measurements (binder, measure, readout_unit, quantitative_result) VALUES
  ('FJ1427_P035MP04D12 (VHH, VHH in periplasmic extract; also called clone nr; 380) VHH: QVQLVESGGGWVQVGKSLRLSCAPSGRTFVSGIMGWFRQAPGKEREFVARIILNNNSTRYIDSVKGRFTISRDSAKNTMYLQMDSLRPEDTAVYYCAARDRYGSGNSLSPSAYDYWGQGTQVTVSS', 'koff', 's⁻¹', 0.0072),
  ('FJ1427_P035MP04G07 (VHH, VHH in periplasmic extract; also called clone nr) VHH: QVQLVESGGGWVQVGESLRLSCAPSGRTFVSGIMGWFRQAPGKEREFVARIILNNNSTRYTDSVKGRFTISRDSAKNTMYLQMNTLRPEDTAVYYCAARDRYGSGNSLSPSAYDYWGQGTQVTVSS', 'koff', 's⁻¹', 0.0091),
  ('FJ1427_P035MP04G02 (VHH, VHH in periplasmic extract; also called clone nr) VHH: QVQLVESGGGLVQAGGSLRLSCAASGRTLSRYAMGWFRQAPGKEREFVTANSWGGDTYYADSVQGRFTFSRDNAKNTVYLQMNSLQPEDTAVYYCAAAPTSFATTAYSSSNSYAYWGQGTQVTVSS', 'koff', 's⁻¹', 0.00148),
  ('33-MP04C09 (VHH, VHH in periplasmic extract; also called FJ1427_P035MP04C09; clone nr) VHH: QLQLVESGGGLVQAGGSLRLSCAASGPTFSRVAVGWFRQAPGKEREFVAAVNRPATMTKYADSVKGRFTVSRDNAKNTVDLQMNSMKPEDTAVYYCAADSVPYGRPYYWQTSAGDYDYWGQGTQVTVSS', 'koff', 's⁻¹', 0.031),
  ('FJ1427_P035MP04A04 (VHH, VHH in periplasmic extract; also called clone nr) VHH: QVQLVESGGGLVQAGESLRLSCAASGPTASRVAVAWFRQVPGKEREFVAVVNRPGTMTKYADSVKGRFTISRDSAKNTVYLQMNSLKPEDTAVYYCAADSVPYGRPYYFQTSAGNYDYWGQGTQVTVSS', 'koff', 's⁻¹', 0.0378),
  ('FJ1427_P035MP04A09 (VHH, VHH in periplasmic extract; also called clone nr) VHH: QVQLVESGGGLVQAGGSLRLSCAASGRTFGAVAVGWFRQVPGKEREFVAAINRNGSATKYADSAKGRFTISRDNAESPVYLQMNSLKPEDTAIYYCAADSLPYGRPYYFQTSAGEYDYWGQGTQVTVSS', 'koff', 's⁻¹', 0.0576),
  ('FJ1427_P035MP04F10 (VHH, VHH in periplasmic extract; also called clone nr) VHH: QLQLVESGGGWVQVGESLRLSCVPSGRTFVSGIMGWFRQAPGKEREFVARIISNNNSTRYTDSVKGRFTISRDSAKNTMYLQMNTLRPEDTAVYYCAARDRYGSGNSLSPSAYDYWGQGTQVTVSS', 'koff', 's⁻¹', 0.0147),
  ('FJ1427_P035MP04D10 (VHH, VHH in periplasmic extract; also called clone nr; 364) VHH: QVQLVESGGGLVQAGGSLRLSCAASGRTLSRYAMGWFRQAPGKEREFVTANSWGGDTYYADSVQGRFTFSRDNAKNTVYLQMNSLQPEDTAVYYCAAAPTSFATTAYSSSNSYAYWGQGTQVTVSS', 'koff', 's⁻¹', 0.00139),
  ('FJ1427_P035MP04A10 (VHH, VHH in periplasmic extract; also called clone nr) VHH: EVQLVESGGGWVQVGESLRLSCAPSGRTFVSGIMGWFRQAPGKEREFVARIILNNNSTRYTDSVKGRFTISRDSAKNTMYLQMNTLRPEDTAVYYCAARDRYGSGNSLSPSAYDYWGQGTQVTVSS', 'koff', 's⁻¹', 0.0204),
  ('FJ1427_P035MP04F06 (VHH, VHH in periplasmic extract; also called clone nr) VHH: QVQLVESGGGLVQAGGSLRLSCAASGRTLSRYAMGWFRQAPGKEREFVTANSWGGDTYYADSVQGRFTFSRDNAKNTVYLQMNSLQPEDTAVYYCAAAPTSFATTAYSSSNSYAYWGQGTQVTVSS', 'koff', 's⁻¹', 0.00298),
  ('FJ1427_P035MP04B05 (VHH, VHH in periplasmic extract; also called clone nr) VHH: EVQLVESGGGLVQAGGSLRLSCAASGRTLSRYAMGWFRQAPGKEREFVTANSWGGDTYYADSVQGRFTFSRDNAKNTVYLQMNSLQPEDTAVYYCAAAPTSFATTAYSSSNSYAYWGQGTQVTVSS', 'koff', 's⁻¹', 0.00292),
  ('FJ1427_P035MP04B08 (VHH, VHH in periplasmic extract; also called clone nr) VHH: QVQLVESGGGLVQAGGSLRLSCVASGRTLSRYAMGWFRQAPGKEREFVTANSWGGDTYYADSVQGRFTFSRDNAKNTVYLQMNSLQPEDTAVYYCAAAPTSFATTAYSSSNSYAYWGQGTQVTVSS', 'koff', 's⁻¹', 0.00205),
  ('FJ1427_P035MP04A01 (VHH, VHH in periplasmic extract; also called clone nr) VHH: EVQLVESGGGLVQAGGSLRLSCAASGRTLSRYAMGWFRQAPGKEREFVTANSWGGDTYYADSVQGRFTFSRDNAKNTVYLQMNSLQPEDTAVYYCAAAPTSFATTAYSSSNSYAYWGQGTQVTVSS', 'koff', 's⁻¹', 0.00156),
  ('FJ1427_P035MP04B01 (VHH, VHH in periplasmic extract; also called clone nr; 290) VHH: EVQLVESGGGLVQAGASLRLSCAASGRTLSRYAMGWFRQAPGKEREFVAASSWGGDTYYADSVEGRFTFSRDNAKNAVYLQMNSLQPEDTAVYYCAGAPTSFATTAYSSSNSYAYWGQGTQVTVSS', 'koff', 's⁻¹', 0.00327),
  ('FJ1427_P035MP04D06 (VHH, VHH in periplasmic extract; also called clone nr) VHH: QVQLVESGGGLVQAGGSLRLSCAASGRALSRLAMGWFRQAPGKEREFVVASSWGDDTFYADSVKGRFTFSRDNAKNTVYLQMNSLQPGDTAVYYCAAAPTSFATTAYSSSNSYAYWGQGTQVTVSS', 'koff', 's⁻¹', 0.00145);

# credit: patent US20240409645A1
